Biological target: T1, RDM15 Tudor domain (residues 598-662), wild type (Arabidopsis thaliana)
T1 chain: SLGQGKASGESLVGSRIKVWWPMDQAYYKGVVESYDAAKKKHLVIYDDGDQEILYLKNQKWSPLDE
Assay: ITC
Ends that are not written are not given here.
METRIC: Kd (nM)
Respond numerically; units are nM and should not be typed.

// field: Kd; key: ARTK(Me)QTARKSTGGKA [H3(1-15) K4me1 peptide] ; value = 1470
